All figures here come from patent US11844843.

target.entity: T1, recombinant cynomolgus monkey (Macaca fascicularis) TfR1 (cynomolgus monkey (Macaca fascicularis), UniProt Q5RDH6 87-760 (Pongo abelii entry), limits assumed)
T1 construct: Recombinant protein; also called cTfR1; cyTfR1
T1 chain: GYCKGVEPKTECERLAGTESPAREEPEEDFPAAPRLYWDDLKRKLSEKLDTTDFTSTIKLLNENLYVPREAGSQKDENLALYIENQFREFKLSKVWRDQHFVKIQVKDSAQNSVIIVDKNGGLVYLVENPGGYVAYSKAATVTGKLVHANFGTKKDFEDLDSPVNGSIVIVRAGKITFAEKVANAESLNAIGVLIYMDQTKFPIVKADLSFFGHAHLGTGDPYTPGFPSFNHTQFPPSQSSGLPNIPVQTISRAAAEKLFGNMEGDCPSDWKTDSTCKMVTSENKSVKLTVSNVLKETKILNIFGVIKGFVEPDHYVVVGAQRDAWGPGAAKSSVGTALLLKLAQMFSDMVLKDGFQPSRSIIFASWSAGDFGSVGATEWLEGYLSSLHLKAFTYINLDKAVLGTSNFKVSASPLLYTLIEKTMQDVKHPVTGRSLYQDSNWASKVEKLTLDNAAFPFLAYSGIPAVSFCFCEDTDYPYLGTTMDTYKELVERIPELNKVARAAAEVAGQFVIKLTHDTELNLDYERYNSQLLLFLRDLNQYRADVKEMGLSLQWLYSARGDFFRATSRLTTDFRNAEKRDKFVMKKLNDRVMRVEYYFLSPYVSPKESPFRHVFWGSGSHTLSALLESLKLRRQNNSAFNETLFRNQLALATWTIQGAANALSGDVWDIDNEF
assay.overview: Table 14, Fab-ASO300 conjugate; method not named
The following binders are listed with their measured DMPK oligo conjugate binding values.
Expressed in nM, but write only the number.

binder | measurement.units | DMPK oligo conjugate binding
conjugate of humanized anti-TfR Fab 3A4 VH3 (N54T)/Vκ4 with DMPK-targeting oligonucleotide ASO300 (Fab, V domains shown, oligonucleotide ASO300 conjugated to the Fab via linker; residue and chain not stated, also called 3A4 (VH3-N54T/Vk4) conjugate) VH: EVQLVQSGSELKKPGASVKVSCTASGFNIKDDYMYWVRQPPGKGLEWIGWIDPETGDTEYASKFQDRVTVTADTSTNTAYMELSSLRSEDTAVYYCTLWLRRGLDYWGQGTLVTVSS VL: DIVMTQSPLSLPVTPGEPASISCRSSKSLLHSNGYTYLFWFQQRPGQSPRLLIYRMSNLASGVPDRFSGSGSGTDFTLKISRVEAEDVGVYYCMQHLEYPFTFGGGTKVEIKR | nM | 5.12
conjugate of humanized anti-TfR Fab 3M12 VH4/Vκ3 with DMPK-targeting oligonucleotide ASO300 (Fab, V domains shown, oligonucleotide ASO300 conjugated to the Fab via linker; residue and chain not stated, also called 3M12 (VH4/Vk3) conjugate) VH: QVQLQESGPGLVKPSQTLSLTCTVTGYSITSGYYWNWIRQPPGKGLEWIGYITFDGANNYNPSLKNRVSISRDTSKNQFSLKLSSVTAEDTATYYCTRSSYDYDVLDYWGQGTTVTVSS VL: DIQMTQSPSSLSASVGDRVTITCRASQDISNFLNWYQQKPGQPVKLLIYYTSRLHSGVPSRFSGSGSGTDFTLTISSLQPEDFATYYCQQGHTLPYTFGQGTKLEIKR | nM | 1.85

Next binder, DMPK oligo conjugate binding to be filled in.
Entry conjugate of humanized anti-TfR Fab 3M12 VH3/Vκ2 with DMPK-targeting oligonucleotide ASO300 (Fab, V domains shown, oligonucleotide ASO300 conjugated to the Fab via linker; residue and chain not stated, also called 3M12 (VH3/Vk2) conjugate) VH: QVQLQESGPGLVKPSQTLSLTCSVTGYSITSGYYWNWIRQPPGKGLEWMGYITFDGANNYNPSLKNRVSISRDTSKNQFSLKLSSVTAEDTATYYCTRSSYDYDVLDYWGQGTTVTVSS VL: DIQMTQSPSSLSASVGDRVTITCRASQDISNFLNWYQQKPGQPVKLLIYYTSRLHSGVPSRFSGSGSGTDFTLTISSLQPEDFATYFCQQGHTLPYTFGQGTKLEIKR has what DMPK oligo conjugate binding?
2.26
